All figures here come from patent US20060257938A1.

Experiment: Probe fluorescence ratio response to stearic acid relative to ADIFAB2
Assay type: binding
Details: response relative to ADIFAB2
Excerpt: In an alternate preferred embodiment, the protein is rI-FABP that has Ala substituted for Leu at position 72 (rI-FABP-L72A) with the resulting probe named ADIFAB2. […] ADIFAB2 also has an altered spectral response, making it especially useful for measurements of FFAu in blood samples (Apple et al, Clinical Proteomics, (2004) 1:41-44, U.S. patent application Ser. No. 10/670,958). […] The baseline value for this ratio, measured in the absence of analyte, is designated R0. […]
property-label: DR/DR SA
// return just the number, without any unit appended

- molecule: "14L 18L 73L 117A 72A (protein, listed as Rattus norvegicus, PEPTIDE (1)...(131) wild-type rat intestinal fatty acid binding protein) AFDGTWKVDRNENLEKFLEKMGINVVKRKLGAHDNLKLTITQEGNKFTVKESSNFRNIDVVFELGVDFAYSALDGTELTGTWTMEGNKLVGKFKRVDNGKELIAVREISGNELIQTATYEGVEAKRIFKKE"
  property-label: "DR/DR SA"
  endpoint-result: 0.031

Asked: Please give the measured DR/DR SA for this molecule: 72G 73F 74E (protein, listed as Rattus norvegicus, PEPTIDE (1)...(131) wild-type rat intestinal fatty acid binding protein) AFDGTWKVDRNENYEKFMEKMGINVVKRKLGAHDNLKLTITQEGNKFTVKESSNFRNIDVVFELGVDFAYSGFEGTELTGTWTMEGNKLVGKFKRVDNGKELIAVREISGNELIQTYTYEGVEAKRIFKKE
Given back: 0.239

Asked: Return reported DR/DR SA; argument: 18I 31F 72A (protein, listed as Rattus norvegicus, PEPTIDE (1)...(131) wild-type rat intestinal fatty acid binding protein) AFDGTWKVDRNENYEKFIEKMGINVVKRKLFAHDNLKLTITQEGNKFTVKESSNFRNIDVVFELGVDFAYSAADGTELTGTWTMEGNKLVGKFKRVDNGKELIAVREISGNELIQTYTYEGVEAKRIFKKE
Given back: 0.950
